target: T1, Glutathione S-transferase (GST) tagged HPV-16 E6 (Human papillomavirus type 16 (HPV-16), UniProt P03126 1-158); assay: fluorescence polarisation; GST-E6 titrated (from 38 μM, 10 point 2-fold serial dilution) against 30 nM fluorescent peptide; 50 mM Tris, 200 mM NaCl, 1 mM DTT, 0.1% Triton X-100; 30 min at RT; sigmoidal dose-response fit; details: both partners purified
T1 construct: Oncoprotein E6 of human papillomavirus type 16; GST fusion printed as 47 kDa; also called GST-E6; E6-GST; source: E. coli BL21, purified (glutathione agarose)
T1 sequence (P03126 whole entry, the tested form may be a part): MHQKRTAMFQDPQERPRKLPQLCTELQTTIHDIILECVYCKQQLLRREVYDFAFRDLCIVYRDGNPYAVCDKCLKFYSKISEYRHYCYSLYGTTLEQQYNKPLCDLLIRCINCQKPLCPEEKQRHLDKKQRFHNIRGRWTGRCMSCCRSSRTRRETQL
pKd: −log10 of the molar value. Bridges are numbered along the chain shown (N, C = ends). Where no end group is shown, it is not given here. [ ]: non-standard residue; d: D form. The star is where a group is joined. 5FAM = O=C1OC2(c3ccc(O)cc3Oc3cc(O)ccc32)c2ccc(C(=O)*)cc21; R8 = C=CCCCCCC[C@@](C)(N)C(=O)O; S5 = C=CCCC[C@](C)(N)C(=O)O; βAla = NCCC(=O)O
Decide using pKd: a value greater than or equal to 6 is Y, a smaller one is N.

>  <BINDER>
{5FAM-βAla}-[R8]AAELTL[S5]ELLG (staple 1-8) [(i, i + 7) stapled peptide 9]

>  <LABEL CLASS>
Y

$$$$
>  <BINDER>
{5FAM-βAla}-AAAE[S5]TLQ[S5]LLG-NH2 (staple 5-9; SMILES CC(C)C[C@H](NC(=O)[C@H](CC(C)C)NC(=O)[C@]1(C)CCCC=CCCC[C@](C)(NC(=O)[C@H](CCC(=O)O)NC(=O)[C@H](C)NC(=O)[C@H](C)NC(=O)[C@H](C)NC(=O)CCNC(=O)c2ccc3c(c2)C(=O)OC32c3ccc(O)cc3Oc3cc(O)ccc32)C(=O)N[C@@H]([C@@H](C)O)C(=O)N[C@@H](CC(C)C)C(=O)N[C@@H](CCC(N)=O)C(=O)N1)C(=O)NCC(N)=O) [(i, i + 4) stapled peptide 7]

>  <LABEL CLASS>
N

$$$$
>  <BINDER>
{5FAM-βAla}-AAAELTL[S5]ELL[S5]-NH2 (staple 8-12; SMILES CC(C)C[C@@H]1NC(=O)[C@H](CCC(=O)O)NC(=O)[C@@](C)(NC(=O)[C@H](CC(C)C)NC(=O)[C@@H](NC(=O)[C@H](CC(C)C)NC(=O)[C@H](CCC(=O)O)NC(=O)[C@H](C)NC(=O)[C@H](C)NC(=O)[C@H](C)NC(=O)CCNC(=O)c2ccc3c(c2)C(=O)OC32c3ccc(O)cc3Oc3cc(O)ccc32)[C@@H](C)O)CCCC=CCCC[C@@](C)(C(N)=O)NC(=O)[C@H](CC(C)C)NC1=O) [(i, i + 4) stapled peptide 8]

>  <LABEL CLASS>
N

$$$$
>  <BINDER>
{5FAM-βAla}-AAAE[R8]TLQELL[S5] (staple 5-12) [(i, i + 7) stapled peptide 11]

>  <LABEL CLASS>
N

$$$$
>  <BINDER>
{5FAM-βAla}-[S5]AAE[S5]TLQELLG (staple 1-5) [(i, i + 4) stapled peptide 5]

>  <LABEL CLASS>
Y

$$$$
